Below, each of the variants is paired with its reported protein stability index value.
B1: PLAGL1 (parent)
chain: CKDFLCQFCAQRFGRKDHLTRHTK

- Variants of: B1
- Experiment: protein stability index of a GFP-peptide fusion (GPS, HEK-293T) (PSI 1-6); higher = more stable;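 also: lentivirally expressed fusions sorted by FACS into six bins by GFP to DsRed ratio, PSI derived from sequencing read proportions per bin multiplied by bin number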
- Assay context: c terminus: a fixed tail appended

Variant identifier: A10F
protein stability index: 1.96

Variant identifier: K2M
protein stability index: 1.46

Variant identifier: F4Y
protein stability index: 1.36

Variant identifier: D3Q
protein stability index: 2.76

Variant identifier: F4V
protein stability index: 1.27

Variant identifier: L19I
protein stability index: 2.32

Variant identifier: K2L
protein stability index: 1.85

Variant identifier: F13T
protein stability index: 2.23

Variant identifier: R12M
protein stability index: 1.94
